Origin of values: patent US20230373985A1

biological target: wt human NUAK1, full length (Homo sapiens, UniProt O60285); construct: 8 nM wt human NUAK1, full length (ThermoFisher/USA); purchased ThermoFisher; assay: TR-FRET LanthaScreen Eu Kinase Binding Assay, NUAK1; settings: read-out: IC50, Activity Toward NUAK1
Sequence (O60285 whole entry): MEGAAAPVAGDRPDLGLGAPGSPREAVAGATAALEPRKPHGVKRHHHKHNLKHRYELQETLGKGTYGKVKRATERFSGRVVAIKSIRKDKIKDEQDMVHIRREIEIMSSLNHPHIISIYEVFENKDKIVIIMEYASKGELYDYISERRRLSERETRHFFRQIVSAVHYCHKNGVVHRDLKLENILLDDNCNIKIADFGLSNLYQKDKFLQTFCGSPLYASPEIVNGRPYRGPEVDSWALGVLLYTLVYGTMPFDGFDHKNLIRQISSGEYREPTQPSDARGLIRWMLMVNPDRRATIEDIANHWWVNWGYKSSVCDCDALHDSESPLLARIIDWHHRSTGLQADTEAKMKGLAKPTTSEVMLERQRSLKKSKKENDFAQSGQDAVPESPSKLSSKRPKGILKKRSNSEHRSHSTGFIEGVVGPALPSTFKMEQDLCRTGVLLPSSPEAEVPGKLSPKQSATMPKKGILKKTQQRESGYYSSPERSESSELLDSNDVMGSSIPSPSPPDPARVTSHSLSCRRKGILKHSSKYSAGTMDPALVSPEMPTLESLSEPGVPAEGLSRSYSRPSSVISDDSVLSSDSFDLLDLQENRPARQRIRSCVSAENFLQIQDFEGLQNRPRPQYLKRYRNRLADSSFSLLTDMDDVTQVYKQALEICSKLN
assay-endpoint: IC50

[[record]]
mol_smiles = "CN1CCC(Oc2ccc(Nc3cn(-c4c(F)cccc4F)nc3C(N)=O)cc2)CC1"
target_system = "wt human NUAK1, full length (Homo sapiens, UniProt O60285)"
result = "10 to 100 nM"

[[record]]
mol_smiles = "NC(=O)c1nn(-c2c(Cl)cccc2Cl)cc1Nc1ccc(C(=O)N2CC[C@H](N)C2)cc1"
target_system = "wt human NUAK1, full length (Homo sapiens, UniProt O60285)"
result = "100 to 1000 nM"

[[record]]
mol_smiles = "COCCc1ncnn1-c1ccc(Nc2cn(-c3c(Cl)cccc3Cl)nc2C(N)=O)cc1"
target_system = "wt human NUAK1, full length (Homo sapiens, UniProt O60285)"
result = "100 to 1000 nM"

[[record]]
mol_smiles = "Cc1ccnnc1-c1ccc(Nc2cn(-c3c(F)cccc3Cl)nc2C(N)=O)cc1"
target_system = "wt human NUAK1, full length (Homo sapiens, UniProt O60285)"
result = "100 to 1000 nM"

[[record]]
mol_smiles = "NC(=O)c1nn(-c2c(Cl)cccc2Cl)cc1Nc1ccc(C(=O)N2CC(C(N)=O)C2)cc1"
target_system = "wt human NUAK1, full length (Homo sapiens, UniProt O60285)"
result = "100 to 1000 nM"

[[record]]
mol_smiles = "NC(=O)c1nn(-c2c(F)cccc2Cl)cc1Nc1ccc(C(=O)N2CCCCC2)cc1"
target_system = "wt human NUAK1, full length (Homo sapiens, UniProt O60285)"
result = "100 to 1000 nM"

[[record]]
mol_smiles = "NC(=O)c1nn(-c2c(F)cccc2Cl)cc1Nc1ccc(-n2ncc3c2CCOC3)cc1"
target_system = "wt human NUAK1, full length (Homo sapiens, UniProt O60285)"
result = "100 to 1000 nM"

[[record]]
mol_smiles = "NC(=O)c1nn(-c2c(Cl)cccc2Cl)nc1Nc1ccc(C(=O)N2CCOCC2)cc1"
target_system = "wt human NUAK1, full length (Homo sapiens, UniProt O60285)"
result = "100 to 1000 nM"

[[record]]
mol_smiles = "CN(C)[C@H]1CCN(C(=O)c2ccc(Nc3cn(-c4c(Cl)cccc4Cl)nc3C(N)=O)cc2)C1"
target_system = "wt human NUAK1, full length (Homo sapiens, UniProt O60285)"
result = "100 to 1000 nM"

[[record]]
mol_smiles = "NC(=O)c1nn(-c2c(Cl)cccc2Cl)cc1Nc1ccc(C(=O)N2CC[C@@H](N)C2)cc1"
target_system = "wt human NUAK1, full length (Homo sapiens, UniProt O60285)"
result = "100 to 1000 nM"

[[record]]
mol_smiles = "NC(=O)c1nn(-c2c(F)cccc2F)cc1Nc1ccc(C(=O)NC2CCOCC2)cc1"
target_system = "wt human NUAK1, full length (Homo sapiens, UniProt O60285)"
result = "10 to 100 nM"

[[record]]
mol_smiles = "Cn1cc(C(F)(F)F)nc1-c1ccc(Nc2cn(-c3c(F)cccc3F)nc2C(N)=O)cc1"
target_system = "wt human NUAK1, full length (Homo sapiens, UniProt O60285)"
result = "100 to 1000 nM"

[[record]]
mol_smiles = "NC(=O)c1nn(-c2c(F)cccc2Cl)cc1Nc1ccc(-c2nnc3n2CCOC3)cc1"
target_system = "wt human NUAK1, full length (Homo sapiens, UniProt O60285)"
result = "100 to 1000 nM"

[[record]]
mol_smiles = "CCN(CC)CCNC(=O)c1ccc(Nc2cn(-c3c(Cl)cccc3Cl)nc2C(N)=O)cc1"
target_system = "wt human NUAK1, full length (Homo sapiens, UniProt O60285)"
result = "100 to 1000 nM"

[[record]]
mol_smiles = "NC(=O)c1nn(-c2c(F)cccc2Cl)cc1Nc1ccc(C(=O)N2CCCC2)cc1"
target_system = "wt human NUAK1, full length (Homo sapiens, UniProt O60285)"
result = "10 to 100 nM"

[[record]]
mol_smiles = "CN1CCC(Oc2ccc(Nc3cn(-c4c(F)cccc4Cl)nc3C(N)=O)cc2)CC1"
target_system = "wt human NUAK1, full length (Homo sapiens, UniProt O60285)"
result = "10 to 100 nM"

[[record]]
mol_smiles = "NC(=O)c1nn(-c2c(Cl)cccc2Cl)cc1Nc1ccc(-c2nncn2CC(F)F)cc1"
target_system = "wt human NUAK1, full length (Homo sapiens, UniProt O60285)"
result = "100 to 1000 nM"

[[record]]
mol_smiles = "NC(=O)c1nn(-c2c(F)cccc2F)cc1Nc1ccc(C(=O)N2CCOCC2)cc1"
target_system = "wt human NUAK1, full length (Homo sapiens, UniProt O60285)"
result = "100 to 1000 nM"

[[record]]
mol_smiles = "Cn1nnnc1-c1ccc(Nc2nn(-c3c(Cl)cccc3Cl)nc2C(N)=O)cc1"
target_system = "wt human NUAK1, full length (Homo sapiens, UniProt O60285)"
result = "100 to 1000 nM"

[[record]]
mol_smiles = "CN1CCN(C(=O)c2ccc(Nc3cn(-c4c(F)cccc4Cl)nc3C(N)=O)cc2)CC1"
target_system = "wt human NUAK1, full length (Homo sapiens, UniProt O60285)"
result = "100 to 1000 nM"

[[record]]
mol_smiles = "CN1CCC(N(C)C(=O)c2ccc(Nc3cn(-c4c(Cl)ccc(F)c4Cl)nc3C(N)=O)cc2)CC1"
target_system = "wt human NUAK1, full length (Homo sapiens, UniProt O60285)"
result = "100 to 1000 nM"

[[record]]
mol_smiles = "CC(C)(C)NC(=O)c1ccc(Nc2cn(-c3c(F)cccc3F)nc2C(N)=O)cc1"
target_system = "wt human NUAK1, full length (Homo sapiens, UniProt O60285)"
result = "100 to 1000 nM"


====

IC50 values for the molecules below.
biological target: wt human TYK2, catalytic site (Homo sapiens, UniProt P29597); construct: wt human TYK2, catalytic site; assay: HTRF KinEASE assay, TYK2; conditions: 1 μM ATP; read-out: IC50, Activity Toward TYK2
Sequence (P29597 897-1176 limits assumed): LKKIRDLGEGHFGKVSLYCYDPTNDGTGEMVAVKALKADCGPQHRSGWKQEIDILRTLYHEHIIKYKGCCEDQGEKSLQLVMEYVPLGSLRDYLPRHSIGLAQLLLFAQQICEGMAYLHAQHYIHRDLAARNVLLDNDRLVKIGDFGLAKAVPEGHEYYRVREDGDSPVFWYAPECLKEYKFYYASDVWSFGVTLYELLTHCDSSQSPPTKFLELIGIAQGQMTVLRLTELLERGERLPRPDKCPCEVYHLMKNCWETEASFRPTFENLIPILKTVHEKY
assay-endpoint: IC50

[[record]]
mol_smiles = "NC(=O)c1nn(-c2c(F)cccc2Cl)cc1Nc1ccc(-c2nnc3n2CCOC3)cc1"
result = "< 10 nM"

[[record]]
mol_smiles = "Cc1cncnc1-c1ccc(Nc2cn(-c3c(Cl)cccc3Cl)nc2C(N)=O)cc1"
result = "10 to 100 nM"

[[record]]
mol_smiles = "Cc1cnncc1-c1ccc(Nc2cn(-c3c(Cl)cccc3Cl)nc2C(N)=O)cc1"
result = "10 to 100 nM"

[[record]]
mol_smiles = "NC(=O)c1nn(-c2c(F)cccc2Cl)cc1Nc1ccc(C(=O)N2CCCCC2)cc1"
result = "10 to 100 nM"


====

pIC50 values for the compounds below.
molecular target: wt human TYK2, catalytic site (Homo sapiens, UniProt P29597); construct: wt human TYK2, catalytic site; test: HTRF KinEASE assay, TYK2; conditions: 1 μM ATP; read-out: IC50, Activity Toward TYK2
pIC50: −log10 of the molar value.
assay-endpoint: pIC50

[[record]]
compound = "Cn1cc(C(F)(F)F)nc1-c1ccc(Nc2cn(-c3c(Cl)cccc3Cl)nc2C(N)=O)cc1 [compound 294]"
result = "> 8.00"

[[record]]
compound = "Cc1ncnn1-c1ccc(Nc2cn(-c3c(Cl)cccc3Cl)nc2C(N)=O)cc1 [compound 326]"
result = "7.00 to 8.00"

[[record]]
compound = "CN1CCN(C(=O)c2ccc(Nc3cn(-c4c(Cl)cccc4Cl)nc3C(N)=O)cn2)CC1 [compound 363]"
result = "7.00 to 8.00"

[[record]]
compound = "NC(=O)c1nn(-c2c(Cl)cccc2Cl)cc1Nc1ccc(-c2nnc3n2CCCCC3)cc1 [compound 63]"
result = "7.00 to 8.00"


====

target: wt human JAK1, catalytic site (Homo sapiens, UniProt P23458); construct: wt human JAK1, catalytic site; experiment: HTRF KinEASE assay, JAK1; conditions: 2.5 μM ATP; read-out: IC50, Activity Toward JAK1
Sequence (P23458 875-1153 limits assumed): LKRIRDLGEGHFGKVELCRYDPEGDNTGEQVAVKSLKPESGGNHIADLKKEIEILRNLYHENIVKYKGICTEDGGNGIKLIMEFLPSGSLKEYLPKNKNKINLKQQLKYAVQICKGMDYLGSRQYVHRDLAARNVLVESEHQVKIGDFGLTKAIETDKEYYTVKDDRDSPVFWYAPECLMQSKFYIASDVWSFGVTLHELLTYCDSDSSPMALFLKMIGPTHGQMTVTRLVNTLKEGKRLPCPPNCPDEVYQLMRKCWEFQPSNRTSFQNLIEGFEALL
pIC50: −log10 of the molar value.
pIC50 values for the molecules below.
assay-endpoint: pIC50

[[record]]
mol_smiles = "Cn1cnnc1-c1ccc(Nc2cn(-c3c(Cl)cccc3Cl)nc2C(N)=O)cn1"
target_system = "wt human JAK1, catalytic site (Homo sapiens, UniProt P23458)"
result = "6.00 to 7.00"

[[record]]
mol_smiles = "NC(=O)c1nn(-c2c(Cl)cccc2Cl)cc1Nc1ccc(-n2nc(C(F)(F)F)nc2CO)cc1"
target_system = "wt human JAK1, catalytic site (Homo sapiens, UniProt P23458)"
result = "6.00 to 7.00"

[[record]]
mol_smiles = "NC(=O)c1nn(-c2c(Cl)cccc2Cl)nc1Nc1ccc(CC(=O)N2CCOCC2)nc1"
target_system = "wt human JAK1, catalytic site (Homo sapiens, UniProt P23458)"
result = "7.00 to 8.00"

[[record]]
mol_smiles = "CCc1cnncc1-c1ccc(Nc2cn(-c3c(Cl)cccc3Cl)nc2C(N)=O)cn1"
target_system = "wt human JAK1, catalytic site (Homo sapiens, UniProt P23458)"
result = "6.00 to 7.00"

[[record]]
mol_smiles = "CC(C)c1ncnn1-c1ccc(Nc2cn(-c3c(Cl)cccc3Cl)nc2C(N)=O)cc1"
target_system = "wt human JAK1, catalytic site (Homo sapiens, UniProt P23458)"
result = "6.00 to 7.00"

[[record]]
mol_smiles = "NC(=O)c1nn(-c2c(Cl)cccc2Cl)nc1Nc1ccc(-n2ncc3c2CCOC3)cc1"
target_system = "wt human JAK1, catalytic site (Homo sapiens, UniProt P23458)"
result = "7.00 to 8.00"

[[record]]
mol_smiles = "CC(C)n1ncnc1-c1ccc(Nc2cn(-c3c(Cl)cccc3Cl)nc2C(N)=O)cc1"
target_system = "wt human JAK1, catalytic site (Homo sapiens, UniProt P23458)"
result = "6.00 to 7.00"

[[record]]
mol_smiles = "CCn1cc(C(F)(F)F)nc1-c1ccc(Nc2cn(-c3c(F)cccc3F)nc2C(N)=O)cc1"
target_system = "wt human JAK1, catalytic site (Homo sapiens, UniProt P23458)"
result = "6.00 to 7.00"

[[record]]
mol_smiles = "NC(=O)c1nn(-c2c(Cl)cccc2Cl)nc1Nc1ccc(C(=O)N2CC(F)C2)cc1"
target_system = "wt human JAK1, catalytic site (Homo sapiens, UniProt P23458)"
result = "> 8.00"

[[record]]
mol_smiles = "NC(=O)c1nn(-c2c(Cl)cccc2Cl)cc1Nc1ccc(-n2nncc2C(F)(F)F)cn1"
target_system = "wt human JAK1, catalytic site (Homo sapiens, UniProt P23458)"
result = "6.00 to 7.00"

[[record]]
mol_smiles = "NC(=O)c1nn(-c2c(Cl)cccc2Cl)cc1Nc1ccc(C(=O)N2CCN(C3CC3)CC2)cn1"
target_system = "wt human JAK1, catalytic site (Homo sapiens, UniProt P23458)"
result = "6.00 to 7.00"

[[record]]
mol_smiles = "NC(=O)c1nn(-c2c(Cl)cccc2Cl)nc1Nc1ccc(C(=O)N2CCOCC2)cc1"
target_system = "wt human JAK1, catalytic site (Homo sapiens, UniProt P23458)"
result = "> 8.00"

[[record]]
mol_smiles = "NC(=O)c1nn(-c2c(Cl)cccc2Cl)cc1Nc1ccc(-c2nncn2CC(F)(F)F)cc1"
target_system = "wt human JAK1, catalytic site (Homo sapiens, UniProt P23458)"
result = "6.00 to 7.00"

[[record]]
mol_smiles = "CCn1cnnc1-c1ccc(Nc2cn(-c3c(Cl)ccc(F)c3Cl)nc2C(N)=O)cc1"
target_system = "wt human JAK1, catalytic site (Homo sapiens, UniProt P23458)"
result = "7.00 to 8.00"

[[record]]
mol_smiles = "CCNC(=O)c1ccc(Nc2cn(-c3c(F)cccc3F)nc2C(N)=O)cc1"
target_system = "wt human JAK1, catalytic site (Homo sapiens, UniProt P23458)"
result = "6.00 to 7.00"

[[record]]
mol_smiles = "CN1CCN(C(=O)c2ccc(Nc3nn(-c4c(Cl)cccc4Cl)nc3C(N)=O)cc2)CC1"
target_system = "wt human JAK1, catalytic site (Homo sapiens, UniProt P23458)"
result = "> 8.00"

